# System: human mantle cell lymphoma cells Jeko-1
# Protocol Summary: MTS in vitro proliferation inhibition, Jeko-1
# Format: cell-based
# Condition Context: 72 hours, average of three experiments
# Description: Cell lines: human multiple myeloma cells RPMI 8226, human mantle cell lymphoma cells Mino, Jeko-1, human lymphoma cells Romas, human acute monocytic leukemia cells MV-4-11, human breast cancer cells MCF-7 Human lung cancer cell A549, human prostate cancer cell LnCAP, human gastric cancer cell BGC-823, human colon cancer cell HCT116, Colo205, and human ovarian cancer cell OVCAR-8. […]
Experimental Endpoint: IC50 (µM)
Answers are plain numbers, in µM.

Smiles Input	Unit Name	IC50
Cn1cc(-c2cnc(Nc3ccc(C#N)nc3)nc2N[C@H]2CCCNC2)cn1	µM	0.253

[ask] Lab note: need IC50 for N#Cc1ccc(Nc2ncc(-c3ccco3)c(NC3CCNCC3)n2)cn1 on human mantle cell lymphoma cells Jeko-1, anyone have it?
[reply] 0.342

====

# Target Of Assay: UniProt O14757
# Protocol Summary: Chk1 enzyme inhibitory activity, ADP-Glo kit
# Assay type: biochemical
# Condition Context: bounds, unit μM
So I've got a bunch of compounds here, and I need their IC50 values.

Reference set (4 entries):
Compound	IC50
N#Cc1ccc(Nc2ncc(C(F)(F)F)c(NC3CCNCC3)n2)cn1 [Compound 35]	< 1 µM
Cc1cc(Nc2ncc(-c3ccco3)c(NC3CCNCC3)n2)n[nH]1 [Compound 5]	> 10 µM
N#Cc1ccc(Nc2ncc(Br)cn2)cn1 [Compound 30]	> 10 µM
Cn1cc(-c2cnc(Nc3ccc(C#N)cn3)nc2NC2CCNCC2)cn1 [Compound 26]	> 10 µM

[ask] Please look up its IC50: Cc1cc(Nc2ncc(-c3cnn(C)c3)c(NC3CCNCC3)n2)n[nH]1 [Compound 1]
[reply] > 10 µM

====

So I've got a bunch of compounds here, and I need their IC50 values.
# Tested on: human colon cancer cell HCT116
# Protocol Summary: MTS in vitro proliferation inhibition, HCT116
# Format: cell-based
# Condition Context: HCT-116, 72 hours, average of three experiments
One number for each entry, in µM.

Smiles Input	Target Of Assay	IC50 / µM
N#Cc1ccc(Nc2ncc(-c3ccco3)c(NC3CCNCC3)n2)cn1	human colon cancer cell HCT116	2.68

Let us examine a further case.
[ask] Please look up its IC50: Cn1cc(-c2cnc(Nc3ccc(C#N)nc3)nc2N[C@H]2CCCNC2)cn1
[reply] 1.39

====

# Test system: human multiple myeloma cells RPMI 8226
# Protocol Summary: MTS in vitro proliferation inhibition, RPMI 8226
# Assay type: cell-based
# Condition Context: 72 hours, average of three experiments, read-out: IC50(μM) RPMI8226
Experimental Endpoint: IC50 (µM)
Answers are plain numbers, in µM.

Smiles Input	Unit Name	Value Reported
Cn1cc(-c2cnc(Nc3ccc(C#N)nc3)nc2N[C@H]2CCCNC2)cn1	µM	3.6

Let us examine a further case.
[ask] Please look up its IC50: N#Cc1ccc(Nc2ncc(-c3ccco3)c(NC3CCNCC3)n2)cn1
[reply] 3.34

====

# Test system: human prostate cancer cell LnCAP
# Protocol Summary: MTS in vitro proliferation inhibition, LnCAP
# Format: cell-based
# Condition Context: 72 hours, average of three experiments
Experimental Endpoint: IC50 (µM)
One number for each entry, in µM.

Smiles Input	Target Of Assay	Unit Name	Value Reported
N#Cc1ccc(Nc2ncc(-c3ccco3)c(NC3CCNCC3)n2)cn1	human prostate cancer cell LnCAP	µM	1.44

Let us examine a further case.
[ask] Please look up its IC50: Cn1cc(-c2cnc(Nc3ccc(C#N)nc3)nc2N[C@H]2CCCNC2)cn1
[reply] 0.842

====

# System: human breast cancer cells MCF-7
# Protocol Summary: MTS in vitro proliferation inhibition, MCF-7
# Assay type: cell-based
# Condition Context: MCF7, 72 hours, average of three experiments
So I've got a bunch of compounds here, and I need their IC50 values.
Give bare numbers, in µM.

Compound	Experimental Endpoint	Value Reported
Cn1cc(-c2cnc(Nc3ccc(C#N)nc3)nc2N[C@H]2CCCNC2)cn1 [Compound 21]	IC50	2.56

Let us examine a further case.
[ask] Please look up its IC50: N#Cc1ccc(Nc2ncc(-c3ccco3)c(NC3CCNCC3)n2)cn1 [Compound 17]
[reply] 1.8

====

So I've got a bunch of compounds here, and I need their IC50 values.
# Target Of Assay: UniProt O14757
# Sequence (O14757 1-476): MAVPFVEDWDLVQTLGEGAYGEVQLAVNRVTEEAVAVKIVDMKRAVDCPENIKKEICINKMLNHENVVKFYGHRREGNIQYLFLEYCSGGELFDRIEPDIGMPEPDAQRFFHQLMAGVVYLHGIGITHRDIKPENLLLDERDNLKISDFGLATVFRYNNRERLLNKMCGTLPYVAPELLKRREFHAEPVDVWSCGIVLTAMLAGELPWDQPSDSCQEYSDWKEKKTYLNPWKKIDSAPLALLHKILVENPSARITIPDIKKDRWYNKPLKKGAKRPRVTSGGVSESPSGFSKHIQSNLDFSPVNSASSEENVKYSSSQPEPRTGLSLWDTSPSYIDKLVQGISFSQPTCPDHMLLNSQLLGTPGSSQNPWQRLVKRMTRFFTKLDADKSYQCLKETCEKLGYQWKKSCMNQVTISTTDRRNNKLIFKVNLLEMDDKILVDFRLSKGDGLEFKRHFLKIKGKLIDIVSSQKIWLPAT
# Protocol Summary: Chk1 enzyme inhibitory activity, ADP-Glo kit
# Assay type: biochemical
# Condition Context: bounds, unit μM

Reference set (6 entries):
Smiles Input	Experimental Endpoint	Value Reported
N#Cc1ccc(Nc2ncc(-c3ccccc3N)cn2)cn1	IC50	> 10 µM
N#Cc1ccc(Nc2ncc(C(F)(F)F)c(NCC3CCNCC3)n2)cn1	IC50	< 1 µM
Cc1cc(Nc2ncc(-c3ccco3)c(NC3CCNCC3)n2)no1	IC50	> 10 µM
Cc1cc(Nc2ncc(-c3cnn(C)c3)c(NC3CCNCC3)n2)no1	IC50	> 10 µM
N#Cc1ccc(Nc2ncc(-c3ccccc3NCC3CCNCC3)cn2)cn1	IC50	> 10 µM
Cc1cc(Nc2ncc(-c3cccs3)c(NC3CCNCC3)n2)n[nH]1	IC50	> 10 µM

Field: IC50. Fill in for each record below.
1. N#Cc1ccc(Nc2ncc(C(F)(F)F)c(N[C@@H]3CCCNC3)n2)cn1
2. Cc1cc(Nc2ncc(-c3cccs3)c(NC3CCNCC3)n2)no1
3. Cn1cc(-c2cnc(Nc3cnc(C#N)cn3)nc2NC2CCNCC2)cn1

[reply]
1. < 1 µM
2. > 10 µM
3. > 10 µM

Measured values drawn from patent US10822327B2 for this set.
